- Tested on: EKVX NSCLC
- Protocol Details: NCI-60 one-dose screen, 48 h
- Cond: 10 µM unless noted
- Description: Growth inhibition of the EKVX human Non-Small Cell Lung tumor cell line is measured as a screen for anti-cancer activity. Cells are grown in 96 well plates and exposed to the test compound for 48 hours. Compounds are tested at a single concentration, which is 10^-5 M for most compounds. The reported endpoint is percent growth (GI% or GIPRCNT), where numbers from 0 - 100% represent growth inhibition, and numbers from -100% - 0 represent cell death. […]
The panel holds about 83,000 compounds, 20% with a hit somewhere; the sample as a whole holds those more often. The source made the active and inactive calls. Rule for the calls: active = growth percent below 10; inactive = the rest.
Please state which outcome applies, choosing from true (active), false (inactive)

Observe how each entry below is paired with its result.
O=C(COc1cccc(/C=C2\COc3ccc(Cl)cc3C2=O)c1)c1ccc(Cl)cc1; false
Cc1cc(N[C@@H]2CCC[C@H](Nc3ccnc4cc(Cl)ccc34)C2)nc(N2CCCCCC2)n1; true

Okay, now this compound:
stdin: Which outcome was assigned to Cc1cc(N2CCSCC2)nc(NC2CCCC(Nc3ccnc4cc(Cl)ccc34)C2)n1 (stereo not drawn) in this test?
stdout: false

* * *

- Test system: BT-549 breast
- Protocol Details: NCI-60 one-dose screen, 48 h (100 = growth as untreated, 0 = no growth, -100 = all killed)
- Cond: 10 µM unless noted
This is part of a sample that, as a whole, favours compounds with a hit. Of some 83,000 tested, about 20% had one in any assay.
Measured Attribute: growth (%)
Write the number in % without appending the unit.

In the examples that follow, each entry is paired with its recorded growth.
O=C(/C=C/c1cc(CN2CCOCC2)c(O)c2ncccc12)c1cc(CN2CCOCC2)c(O)c2ncccc12; 12.8
O=[N+]([O-])c1cnc(N2CCN(CC3CC3)CC2)nc1N1CCN(CC2CC2)CC1; 88.9
Cn1cc(-c2nonc2-c2c[nH]c3ccccc23)c2cccnc21; 58.6

Sample `CCOC(=O)c1sc2nc(-c3cccc(OC)c3)nc(N3CCOCC3)c2c1C` , system: BT-549 breast. Its growth is 94.9

* * *

- Test system: HOP-92 NSCLC
- Protocol Details: NCI-60 one-dose screen, 48 h (100 = growth as untreated, 0 = no growth, -100 = all killed)
- Cond: 10 µM unless noted
About 83,000 compounds went through this panel and 20% of them were active in at least one assay; those are over-represented in the sample as a whole. The source made the active and inactive calls. How the source made its calls: active means growth percent below 10; inactive means the rest.
Measured Attribute: growth

In the examples that follow, each entry is paired with its recorded growth.
N#CN1CCC[C@H]1C(=O)N1CCc2c(-c3[nH]nc4ncccc34)cccc21; -21.6% (active)
Cc1nc2c3c(-c4ccccc4)c(-c4ccccc4)oc3ncn2n1; 81.7% (inactive)
CCOc1cc2c(cc1OCC)C(c1cc(OC)c(O)cc1Cl)NCC2 (stereo unspecified); 114% (inactive)
COc1ccc(C2CC(c3ccc4ccccc4c3)=NN2/C=C2\SC(=S)N(NC(=O)Cc3ccccc3Nc3c(Cl)cccc3Cl)C2=O)cc1 (stereo unspecified); 38.5% (inactive)
O=C1/C(=C/c2ccc3c(c2)OCO3)SC(=S)N1CCc1ccc(O)cc1; 72% (inactive)

CC1C(/C=N/Nc2ccccc2)C(C#N)(C#N)C1(C#N)C#N (stereo unspecified) yielded growth of 90.5% (inactive)
